target-or-system: T1, intact high molecular weight kininogen (HMWK) (Homo sapiens, UniProt P01042 19-644)
T1 construct: also called intact HMWK; 1-chain HMWK
T1 sequence: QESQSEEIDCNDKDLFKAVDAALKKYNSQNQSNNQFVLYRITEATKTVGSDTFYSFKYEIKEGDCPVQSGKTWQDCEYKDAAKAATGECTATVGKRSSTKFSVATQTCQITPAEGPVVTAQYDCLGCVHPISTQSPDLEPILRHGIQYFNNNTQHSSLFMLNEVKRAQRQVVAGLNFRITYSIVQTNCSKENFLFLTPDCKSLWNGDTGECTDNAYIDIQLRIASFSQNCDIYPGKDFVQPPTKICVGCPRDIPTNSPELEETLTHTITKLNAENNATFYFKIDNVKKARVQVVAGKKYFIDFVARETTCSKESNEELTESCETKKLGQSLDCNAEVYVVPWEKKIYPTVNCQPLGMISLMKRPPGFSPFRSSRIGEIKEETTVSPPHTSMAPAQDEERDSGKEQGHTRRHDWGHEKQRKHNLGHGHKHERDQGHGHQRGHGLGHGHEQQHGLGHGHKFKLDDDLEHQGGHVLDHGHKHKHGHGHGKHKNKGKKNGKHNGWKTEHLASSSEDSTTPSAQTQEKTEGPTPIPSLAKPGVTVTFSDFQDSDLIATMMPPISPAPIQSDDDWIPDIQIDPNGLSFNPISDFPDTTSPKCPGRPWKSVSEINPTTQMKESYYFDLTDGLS
test-details: ELISA: Fab coated on 96-well plate, LowCross block, biotinylated antigen, streptavidin-HRP; signal over uncoated well
Protocol: Thirty-six purified Fab clones (see Table 2 below) were assessed for binding to cleaved HWMK, intact HMWK, and LWMK using the immunoassay described in Example 1. Specifically, each of the purified Fab clones was immobilized on 96-well assay plates at a concentration of […]) in a total volume of 100 μL in PBS and incubated overnight at 2-8° C. […] The signal to noise ratio was calculated using the signal observed upon the addition of the biotinylated protein to an uncoated well. […]
measured-attribute: binding result

559B-M0044-C05 (Fab, V domains shown) VH: EVQLLESGGGLVQPGGSLRLSCAASGFTFSIYQMYWVRQAPGKGLEWVSSIYSSGGRTFYADSVKGRFTISRDNSKNTLYLQMNSLRAEDTAVYYCATRGSWYVGGNEYFQHWGQGTLVTVSS VL: QSVLTQSPSLSLSPGQTASIPCSGDTLGNKFVSWYQQKPGQSPVLVIYQDTKRPSGIPERFSGSNSGNTATLTITGTQAMDEADYYCQVWDSNSYAFGPGTKVTVL = binds
559B-M0068-D01 (Fab, V domains shown) VH: EVQLLESGGGLVQPGGSLRLSCAASGFTFSIYPMSWVRQAPGKGLEWVSGISPSGGKTAYADSVKGRFTISRDNSKNTLYLQMNSLRAEDTAVYYCARGQGRAVRGKLYYYGMDVWGQGTTVTVSS VL: QSALTQPPSASQTPGQTVTISCSGSSSNIGTNNVNWYQQLPGTAPKLLISSHHRRPSGVPDRFSASKSGTSASLAISGLQSEDEADYYCAAWDDSLNGPVFGGGTKLTVL = binds
